# protocol details: Plasma free fraction (fu) and unbound Cmax (Cmax,u)
# Assay type: in vitro ADME, human
# cond: unbound plasma Cmax
Values of Human plasma Cmax,u greater than or equal to 0.6 µM map to met; values below map to not met.

Worked cases, answers included:
compound | qualitative label
CN(C)C(=N)N=C(N)N [metformin] | met
CC(=O)Oc1ccccc1C(=O)O [acetylsalicylic acid] | met
C[N+](C)(C)CC(=O)O [betaine, reference compound] | met
Cc1c(C)c2c(c(C)c1O)CCC(C)(COc1ccc(CC3SC(=O)NC3=O)cc1)O2 (centres unmarked) [troglitazone, reference compound] | not met

// switching to the query compound
hey, is Human plasma Cmax,u for this one >= 0.6 µM? [H]/N=C(/N)N[C@H]1[C@H](O)[C@@H](O)[C@H](O[C@@H]2O[C@@H](C)[C@](O)(C=O)[C@H]2O[C@@H]2O[C@@H](CO)[C@H](O)[C@@H](O)[C@@H]2NC)[C@@H](N/C(N)=N\[H])[C@@H]1O [streptomycin, reference compound]
met

* * *

# Test system: hLiMTs
# protocol details: Combined HCI (HCS) and cellular ATP 3D assay in hLiMTs
# cond: hLiMTs; HCS endpoints; cut-off <100x Avg Cmaxu
measured attribute: hLiMTs <100x Avg Cmaxu HCS

compound | reported
CCN(CC)CCNC(=O)c1c(C)[nH]c(/C=C2\C(=O)Nc3ccc(F)cc32)c1C [sunitinib] | +ve (<100x Avg Cmaxu)
O=C1CC2(CCCC2)CC(=O)N1CCCCN1CCN(c2ncccn2)CC1 [buspirone, reference compound] | -ve
C#CCN(C)Cc1ccccc1 [pargyline] | -ve
CN(C)CCCN1c2ccccc2Sc2ccc(Cl)cc21 [chlorpromazine, reference compound] | +ve (<100x Avg Cmaxu)
N[C@@H](Cc1cc(I)c(Oc2ccc(O)c(I)c2)c(I)c1)C(=O)O [liothyronine] | -ve

# return hLiMTs <100x Avg Cmaxu HCS for each item in the list
1. CN(C)C(=N)N=C(N)N [metformin]
2. CC(C)(C)NCC(O)COc1cccc2c1CC(O)C(O)C2 (stereo not drawn) [nadolol]
3. CNC1(C)C2CCC(C2)C1(C)C (stereo not drawn) [mecamylamine]
4. CC(C)C(=O)Nc1ccc([N+](=O)[O-])c(C(F)(F)F)c1 [flutamide, reference compound]
5. CCN(CC)CC#CCOC(=O)C(O)(c1ccccc1)C1CCCCC1 (stereo not drawn) [oxybutynin]
6. Cn1cnc([N+](=O)[O-])c1Sc1ncnc2nc[nH]c12 [azathioprine]

+ve (<100x Avg Cmaxu)
-ve
-ve
+ve (<100x Avg Cmaxu)
-ve
+ve (<100x Avg Cmaxu)

Below are some compounds; for each one, tell me its hLiMTs <100x Avg Cmaxu HCS.
1. O=C1CN(/N=C/c2ccc([N+](=O)[O-])o2)C(=O)N1 [nitrofurantoin, reference compound]
2. CC[C@H]1OC(=O)[C@H](C)[C@@H](O[C@H]2C[C@@](C)(OC)[C@@H](O)[C@H](C)O2)[C@H](C)[C@@H](O[C@@H]2O[C@H](C)C[C@H](N(C)C)[C@H]2O)[C@](C)(O)C[C@@H](C)C(=O)[C@H](C)[C@@H](O)[C@]1(C)O [erythromycin]
3. CC(=O)Nc1ccc(O)cc1 [acetaminophen]
4. CN(C)CCC(c1ccc(Cl)cc1)c1ccccn1 (stereo not drawn) [chlorpheniramine]
5. CCc1ccc(CCOc2ccc(CC3SC(=O)NC3=O)cc2)nc1 (stereo not drawn) [pioglitazone, reference compound]
6. Cc1c(-c2ccccc2)oc2c(C(=O)OCCN3CCCCC3)cccc2c1=O [flavoxate]

["+ve (<100x Avg Cmaxu)", "-ve", "+ve (<100x Avg Cmaxu)", "-ve", "-ve", "-ve"]

Field: hLiMTs <100x Avg Cmaxu HCS (hLiMTs). Entry: NNC(=O)c1ccncc1 [isoniazid, reference compound]
-ve
